- Test system: HT29 colon
- test protocol: NCI tumour cell line growth inhibition, 48 h; in the data active means GI50 below about 0.43 µM; inactive means the rest
Could you please pick one outcome from this set? active, inactive

Illustrative cases are given below, each with its answer.
# compound, discrete label
records = [
    ("Cc1ccc2nc3ccccc3c(NCc3ccccc3)c2c1", "inactive"),
    ("COc1ccc(NC(=O)c2sc3nc(C)c(C(=O)/C=C/c4ccccc4)cc3c2N)cc1", "inactive"),
    ("O=C1N=C(c2c(-c3[nH]c(=O)c4ccc(Br)cc4c3O)c(O)c3ccccc3c2O)C(=O)c2cc(Br)ccc21", "inactive"),
    ("C[C@@H]1CCC2[C@@H](C)[C@@H](OC3CCC(O)CC3)OC3O[C@@]4(C)CCC1[C@]32OO4 (some centres undefined)", "inactive"),
    ("COc1ccc(C(=O)/C=C/c2ccc(OCc3ccc(Cl)cc3)cc2)cc1OC", "inactive"),
    ("CCC(=O)Oc1cc(/C=C/C(=O)O[C@H]2C[C@H]3CN4CCc5c([nH]c6cc(OC)ccc56)[C@@H]4C[C@@H]3[C@@H](C(=O)OC)[C@@H]2OC)ccc1OC", "inactive"),
    ("COc1cc(C(=O)/C=C/c2cc(-c3cc(OC)c(OC)c(OC)c3)n[nH]2)cc(OC)c1OC", "inactive"),
    ("NCCSCC(N)C(=O)O (centres undefined)", "inactive"),
    ("COC(=O)N1c2ccc3c(nc(Cc4ccccc4)n3[C@H]3CCC[C@H](C(=O)O)C3)c2CC[C@@H]1C", "inactive"),
    ("O=c1cc(N2CCOCC2)oc2c(-c3ccc4c(c3)OCCO4)csc12", "active"),
]

Input: Answer briefly: the call reported for Cc1c(-c2ccc(O)c(O)c2)oc(=O)c2c(O)cc(O)cc12 in this assay.
Output: inactive

Input: Check COc1ccc(C(=O)C2C(C#N)C(C#N)C3C=Cc4ccccc4N32)cc1 (centres undefined) too.
Output: inactive

Input: Check Cn1cc(-c2ccc(-c3cn(C)c4ncccc34)[nH]2)c2cccnc21 too.
Output: inactive

Input: Check COC(=O)c1ccc([C@H]2c3[nH]c4ccccc4c3C[C@H](C(=O)OC)N2C(=O)CCl)cc1 too.
Output: active

---

Answer each item with its documented TGI.
- Test system: A498 renal
- test protocol: NCI tumour cell line growth inhibition, 48 h

# compound, TGI
measured = [
    ("CC(C)(C)c1cc(COc2cc(COc3ccc(-c4c5c(nc6c4CCc4ccc(-c7c8ccccc8nc8ccccc78)cc4-6)-c4cc(-c6c7ccccc7nc7ccccc67)ccc4CC5)cc3)cc(OCc3cc(C(C)(C)C)cc(C(C)(C)C)c3)c2)cc(C(C)(C)C)c1", "> 100 µM"),
    ("O=C(O)[C@@H]1CCCN1Cc1cc2cc3c(cc2c2cc(OCc4ccccc4)ccc12)OCO3", "45.3 µM"),
    ("CCOC(=O)C(C)(C)Oc1ccc(Cl)cc1", "> 1000 µM"),
    ("COc1ccc(C(=O)C2C(C#N)C(C#N)C3C=Cc4ccccc4N32)cc1 (centres undefined)", "3.13 µM"),
    ("O=C(N/N=C\\c1cc(Cl)ccc1O)c1ccncc1", "> 100 µM"),
    ("Cc1ccncc1N1CCN(c2ccnc(Cl)c2)C1=O", "> 100 µM"),
    ("Clc1ccc(C2c3ccccc3-c3nc4ccccc4n32)cc1 (centres undefined)", "> 79.9 µM"),
    ("O=S(=O)(Cc1nc2ccccc2s1)c1nc2ccccc2s1", "38.6 µM"),
]

Then there is this compound:
Input: Need TGI of C=C1C(=O)C2=C[C@H]1C[C@H](O)C(=O)[C@]1(C)CCCC(C)(C)[C@H]1C[C@H]2O , thanks.
Output: 3.73 µM
